- measured-on: Purine nucleoside phosphorylase (Homo sapiens)
- protocol: Inhibition of human recombinant PNP using MSEG as substrate preincubated with inhibitor within 10 to 20 mins measured after 5 mins by HPLC analysis
parameter: pIC50
Scale: pIC50 equals -log10([C]), with [C] in mol/L.

*Q* If you can, please state the reported pIC50 value of Nc1nc2c(ncn2[C@@H]2CN(C(=O)P(=O)(O)O)C[C@@H]2O)c(=O)[nH]1 .
*A* 8.00

* * *

- measured-on: Purine nucleoside phosphorylase (Homo sapiens, UniProt P00491)
- Sequence (P00491 whole entry): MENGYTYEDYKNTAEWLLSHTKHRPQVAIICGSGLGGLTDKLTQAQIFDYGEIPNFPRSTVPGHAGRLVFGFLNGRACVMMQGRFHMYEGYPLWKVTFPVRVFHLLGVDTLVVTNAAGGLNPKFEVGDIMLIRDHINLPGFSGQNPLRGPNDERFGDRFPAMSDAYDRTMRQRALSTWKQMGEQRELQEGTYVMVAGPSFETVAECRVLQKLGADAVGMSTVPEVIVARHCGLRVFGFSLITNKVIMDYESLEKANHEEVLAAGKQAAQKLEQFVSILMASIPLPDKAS
- protocol: Competitive inhibition of PNP in human MINO cells using MSEG as substrate by Dixon-plot analysis
- Format: cell-based
Quick list: Ki per entry.
Form entry: value (nM) — number only.

| smiles-notation | measured-on | Ki, nM |
| --- | --- | --- |
| Nc1nc2c(ncn2[C@@H]2CN(C(=O)P(=O)(O)O)C[C@@H]2O)c(=O)[nH]1 | Purine nucleoside phosphorylase (Homo sapiens, UniProt P00491) | 10 |

Now let's try a different one.
*Q* Param readout = Ki; param system = Purine nucleoside phosphorylase (Homo sapiens, UniProt P00491); param query = Nc1nc2c(ncn2[C@H]2CCN(C(=O)P(=O)(O)O)C2)c(=O)[nH]1 ; response: value
*A* 30

* * *

- measured-on: UniProt P00491
- protocol: Competitive inhibition of PNP in human Jurkat cells using MSEG as substrate by Dixon-plot analysis
- Type: cell-based
Quick list: pKi per entry.
Scale: pKi equals -log10([C]), with [C] in mol/L.

| smiles-notation | obs-value |
| --- | --- |
| Nc1nc2c(ncn2[C@@H]2CN(C(=O)P(=O)(O)O)C[C@@H]2O)c(=O)[nH]1 | 8.00 |

*Q* Param readout = pKi; param system = UniProt P00491; param query = Nc1nc2c(ncn2[C@H]2CCN(C(=O)P(=O)(O)O)C2)c(=O)[nH]1 ; response: value
*A* 7.80

* * *

- measured-on: Purine nucleoside phosphorylase (Homo sapiens, UniProt P00491)
- protocol: Competitive inhibition of PNP in human CML cells obtained from patients using MSEG as substrate by Dixon-plot analysis
- Format: cell-based
parameter: Ki (nM)
Form entry: value (nM) — number only.

| smiles-notation | Ki / nM |
| --- | --- |
| Nc1nc2c(ncn2[C@@H]2CN(C(=O)P(=O)(O)O)C[C@@H]2O)c(=O)[nH]1 | 14 |

Now let's try a different one.
*Q* If you can, please state the reported Ki value of Nc1nc2c(ncn2[C@H]2CCN(C(=O)P(=O)(O)O)C2)c(=O)[nH]1 .
*A* 77
